# tested-target: PI3Kγ (Homo sapiens)
# Sequence (P48736 whole entry, species assumed): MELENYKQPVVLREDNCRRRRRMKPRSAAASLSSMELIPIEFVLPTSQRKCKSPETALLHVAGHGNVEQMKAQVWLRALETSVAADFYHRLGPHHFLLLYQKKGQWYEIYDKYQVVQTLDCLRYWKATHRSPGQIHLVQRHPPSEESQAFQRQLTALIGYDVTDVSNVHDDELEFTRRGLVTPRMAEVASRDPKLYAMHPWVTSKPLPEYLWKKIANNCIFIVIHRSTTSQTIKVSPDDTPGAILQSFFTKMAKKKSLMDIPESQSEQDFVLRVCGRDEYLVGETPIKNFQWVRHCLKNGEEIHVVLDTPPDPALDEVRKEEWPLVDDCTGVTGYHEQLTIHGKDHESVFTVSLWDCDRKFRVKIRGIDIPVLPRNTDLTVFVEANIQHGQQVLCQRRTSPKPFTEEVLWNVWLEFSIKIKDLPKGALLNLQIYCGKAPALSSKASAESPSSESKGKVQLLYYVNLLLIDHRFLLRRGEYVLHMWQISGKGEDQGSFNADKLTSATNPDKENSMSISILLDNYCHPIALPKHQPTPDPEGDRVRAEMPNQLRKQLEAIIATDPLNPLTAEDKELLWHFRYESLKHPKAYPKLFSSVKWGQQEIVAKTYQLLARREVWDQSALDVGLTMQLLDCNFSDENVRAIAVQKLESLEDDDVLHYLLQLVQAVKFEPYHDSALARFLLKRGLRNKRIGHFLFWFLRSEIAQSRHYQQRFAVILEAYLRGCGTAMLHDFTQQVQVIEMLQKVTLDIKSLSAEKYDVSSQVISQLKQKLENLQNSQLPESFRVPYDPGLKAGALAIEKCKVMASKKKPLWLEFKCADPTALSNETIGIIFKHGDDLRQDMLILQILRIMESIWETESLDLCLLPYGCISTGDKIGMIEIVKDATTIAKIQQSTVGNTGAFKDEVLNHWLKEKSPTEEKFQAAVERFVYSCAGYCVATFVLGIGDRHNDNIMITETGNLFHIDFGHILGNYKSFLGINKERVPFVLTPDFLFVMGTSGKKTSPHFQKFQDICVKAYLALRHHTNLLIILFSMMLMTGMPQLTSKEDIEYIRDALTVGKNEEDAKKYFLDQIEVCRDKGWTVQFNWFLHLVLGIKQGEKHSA
# test-summary: PI3Kγ inhibitory activity (PI3-kinase HTRF assay, inhibition ratio)
# Format: biochemical
# condition-info: 0.5 h, compound at 10 μmol/L; read-out: PI3Kg Inhibition Ratio % (10 μM)
Recorded inhibition at 10 µM, one value per entry.
reported-endpoint: inhibition at 10 µM

INSERT INTO measurements (molecule, assay_value) VALUES
  ('COc1cc(N2CCc3nc(NC(=O)Nc4ccccc4C(=O)N4CCOCC4)sc3C2)nc(OC)n1', '68%'),
  ('COc1cc(N2CCc3nc(NC(=O)Nc4ccsc4C(=O)O)sc3C2)nc(OC)n1', '72%'),
  ('CC(=O)c1cccc(-c2cc(NC(=O)Nc3ccccc3OCCC(C)C)nn2C)c1', '≥ 95%'),
  ('COc1nc(Cl)cc(N2CCc3nc(NC(=O)Nc4ccccc4C(=O)NC4CCCOC4)sc3C2)n1 (centres unmarked)', '≥ 95%'),
  ('CCNC(=O)c1ccccc1NC(=O)Nc1nc2c(s1)CN(c1cc(Cl)nc(OC)n1)CC2', '≥ 95%'),
  ('CC(C)NC(=O)c1ccccc1NC(=O)Nc1nc2c(s1)CN(c1ccc(C#N)cc1)CC2', '≥ 95%'),
  ('Cc1cc(N2CCc3nc(NC(=O)Nc4ccccc4C(=O)N[C@H](C)CO)sc3C2)nc(C#N)n1', '≥ 95%'),
  ('COc1cc(N2CCc3nc(NC(=O)Nc4ccccc4C(=O)NCC(C)(C)O)sc3C2)nc(OC)n1', '86%'),
  ('COc1cc(N2CCc3nc(NC(=O)Nc4ccccc4C(=O)NC(C)C(F)(F)F)sc3C2)nc(OC)n1 (centres unmarked)', '≥ 95%'),
  ('COc1cc(N2CCc3nc(NC(=O)Nc4ccccc4C(=O)NC4CCNCC4)sc3C2)nc(OC)n1', '≥ 95%'),
  ('CC(=O)c1cccc(-c2ccc3nc(NC(=O)Nc4ccccc4OCCC(C)C)sc3n2)c1', '≥ 95%'),
  ('COc1cc(N2CCc3nc(NC(=O)Nc4ccccc4C(=O)NCCO)sc3C2)nc(OC)n1', '≥ 95%'),
  ('COCC(C)NC(=O)c1ccccc1NC(=O)Nc1nc2c(s1)CN(c1cc(OC)nc(OC)n1)CC2 (centres unmarked)', '94%'),
  ('COc1cc(N2CCc3nc(NC(=O)Nc4ccccc4C(=O)NN(C)C)sc3C2)nc(OC)n1', '≥ 95%'),
  ('CC(C)NC(=O)c1ccccc1NC(=O)Nc1nc2c(s1)CN(c1cccc(S(C)(=O)=O)c1)CC2', '≥ 95%'),
  ('COc1cc(N2CCc3nc(NC(=O)Nc4ccccc4C(=O)N(C)C(C)C)sc3C2)nc(OC)n1', '≥ 95%'),
  ('Cc1cc(N2CCc3nc(NC(=O)Nc4ccccc4C(=O)NCC#N)sc3C2)nc(Cl)n1', '≥ 95%'),
  ('Cc1cc(N2CCc3nc(NC(=O)Nc4cn(C)nc4C(=O)NC(C)C)sc3C2)nc(Cl)n1', '93%'),
  ('COc1cc(N2CCc3nc(NC(=O)NC4=C(C(=O)NC(C)(C)C)CCC4)sc3C2)nc(OC)n1', '≥ 95%'),
  ('CC(C)NC(=O)c1ccccc1NC(=O)Nc1nc2c(s1)CN(c1ccc(S(C)(=O)=O)cc1)CC2', '≥ 95%');
